Each entry below carries its recorded Burkin Assay in Myotubes (signal relative to DMSO).
tested on: α7 integrin (LacZ reporter in α7+/LacZ myotubes); assay: Myotube α7 integrin FDG assay (Burkin assay in myotubes, 96-well); assay type: cell-based, mouse; conditions: 40 uM, myotubes

{"columns": ["molecule", "readout_value"],
 "data": [
  ["COCCN(CC(=O)Nc1cccc(C)c1C)C(=O)C1CCN(S(=O)(=O)c2ccccc2)CC1 [MLS002156278-01]", 1.025],
  ["O=c1[nH]c(C2CCCN(S(=O)(=O)c3ccccc3)C2)nc2c1nnn2Cc1cccc(Cl)c1 (stereo not drawn) [MLS001217286-01]", 0.5964],
  ["CN(C)S(=O)(=O)c1ccc(C(=O)Nc2nc3ccccc3[nH]2)cc1 [MLS000774940-01]", 0.878],
  ["CNC(=S)N1CCC(NC(=O)C(Cc2ccc(F)cc2)NC(C)=O)CC1 (stereo not drawn) [MLS000710130-01]", 1.064],
  ["Cc1ccc(-c2csc(Nc3ccc(C(=O)O)cc3)[n+]2Cc2ccccc2)cc1 [MLS000374261-01]", 0.449],
  ["NS(=O)(=O)c1ccc(NC(=O)c2cc(-c3ccccc3O)n[nH]2)cc1 [MLS001214443-01]", 1.083],
  ["NC(=O)c1nsc(C(=O)N(c2ccccc2)C(C(=O)NCc2ccc(F)cc2)c2ccc(O)cc2)c1N (stereo not drawn) [MLS001219621-01]", 0.4537],
  ["Cc1cc(-c2ccccc2)n2nc(N)nc2n1 [MLS000122180-01]", 0.9496]
]}

Problem: What does the data say about its Burkin Assay in Myotubes (signal relative to DMSO)? Entry: CC(C(=O)Nc1ccc(C#N)cc1)N(C)CC(=O)Nc1cccc(F)c1 (stereo not drawn) [MLS001033255-01]
Result: 1.04

Problem: Recorded Burkin Assay in Myotubes (signal relative to DMSO) for O=C(NCc1ccccc1)C(c1ccc(O)cc1)N(C(=O)Cn1nnc(-c2cccs2)n1)c1ccc2c(c1)OCCO2 (stereo not drawn) [MLS000123454-01] , please?
Result: 0.8852

Problem: Return reported Burkin Assay in Myotubes (signal relative to DMSO); argument: Cc1cccc(OCc2nc(C#N)c(N3CCCC3)o2)c1 [MLS000332693-01]
Result: 0.9252

Problem: Endpoint output: Burkin Assay in Myotubes (signal relative to DMSO) of N/C(=N\OC(=O)COc1cc(Cl)c(Cl)cc1Cl)c1ccncc1 [MLS000625140-01] . Value?
Result: 0.6514

From: patent US9980943B2
